- measurement target: Luciferin 4-monooxygenase (Photinus pyralis) (UniProt P08659)
- Sequence (P08659 whole entry, looked up): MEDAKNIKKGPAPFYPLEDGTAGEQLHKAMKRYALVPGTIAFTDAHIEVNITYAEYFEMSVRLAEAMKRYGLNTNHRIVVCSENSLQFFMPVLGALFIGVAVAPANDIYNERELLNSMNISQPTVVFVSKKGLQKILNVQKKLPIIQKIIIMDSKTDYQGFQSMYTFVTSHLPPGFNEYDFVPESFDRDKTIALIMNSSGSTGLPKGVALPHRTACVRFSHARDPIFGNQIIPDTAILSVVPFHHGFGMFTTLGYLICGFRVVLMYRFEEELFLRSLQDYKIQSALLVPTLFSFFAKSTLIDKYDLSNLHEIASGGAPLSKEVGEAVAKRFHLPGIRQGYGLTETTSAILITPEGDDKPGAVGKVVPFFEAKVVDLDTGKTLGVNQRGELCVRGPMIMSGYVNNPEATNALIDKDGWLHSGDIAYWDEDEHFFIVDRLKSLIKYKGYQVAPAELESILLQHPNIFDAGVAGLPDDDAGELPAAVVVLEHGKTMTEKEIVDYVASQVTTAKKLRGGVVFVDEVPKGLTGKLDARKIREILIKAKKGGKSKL
- test method notes: firefly luciferase enzyme inhibitors, primary screen, artefact control for luciferase-based inhibitor screens, biochemical, luminescence, ATPLite (AID 1006)
- run conditions: 10 min, at 10 µM, active compounds read high
Hit rate of the full screen: of about 200,000 compounds, about 3,000 (1.5%) were called active. This is one part of a sample in which actives are shown more often than they occur.
quantity kind: inhibition (%)

# compound, measurement target, result number
records = [
    ("Oc1ccc(-c2[nH]ncc2-c2nc3ccccc3s2)c(O)c1", "Luciferin 4-monooxygenase (Photinus pyralis) (UniProt P08659)", -7.2),
    ("CN(C)CCCn1c(SCCN2C(=O)c3ccccc3C2=O)nc2ccccc2c1=O", "Luciferin 4-monooxygenase (Photinus pyralis) (UniProt P08659)", -5.8),
    ("O=C(NCCOc1ccccc1)c1ccccc1", "Luciferin 4-monooxygenase (Photinus pyralis) (UniProt P08659)", 14.7),
    ("CCNS(=O)(=O)c1ccc(NC(=O)c2cncc(Br)c2)cc1", "Luciferin 4-monooxygenase (Photinus pyralis) (UniProt P08659)", -4.2),
    ("Cc1noc(C)c1/C=N/Nc1ccc2ccccc2n1", "Luciferin 4-monooxygenase (Photinus pyralis) (UniProt P08659)", 13.4),
    ("O=C(c1cn2ccccc2n1)N1CCc2c([nH]c3ccccc23)C1c1ccccn1 (stereo unspecified)", "Luciferin 4-monooxygenase (Photinus pyralis) (UniProt P08659)", 1),
    ("O=C(N/N=C/c1c(Cl)[nH]c2ccccc12)c1sc2ccccc2c1Cl", "Luciferin 4-monooxygenase (Photinus pyralis) (UniProt P08659)", 5),
    ("Cc1cccc(NC(=O)CN2C(=O)c3ccccc3C2=O)c1C", "Luciferin 4-monooxygenase (Photinus pyralis) (UniProt P08659)", -4),
    ("CCc1ccc(NC(=O)C(=O)N/N=C(\\C)CC(=O)NCCOC)cc1", "Luciferin 4-monooxygenase (Photinus pyralis) (UniProt P08659)", 10.5),
    ("COc1cccc(-c2cc(C(=O)N/N=C/c3ccc(OC)c(COC(C)=O)c3)c3ccccc3n2)c1", "Luciferin 4-monooxygenase (Photinus pyralis) (UniProt P08659)", -1.7),
    ("O=C(CCl)N(Cc1cccc([N+](=O)[O-])c1)c1cccc(Cl)c1", "Luciferin 4-monooxygenase (Photinus pyralis) (UniProt P08659)", -6.8),
    ("O=C(N/N=C/C=C/c1ccco1)c1cccs1", "Luciferin 4-monooxygenase (Photinus pyralis) (UniProt P08659)", 12.4),
    ("Cc1cc(C)c2c(NC(=O)C3CC3)nn(C)c2n1", "Luciferin 4-monooxygenase (Photinus pyralis) (UniProt P08659)", -5.8),
    ("O=Cc1ccc(OCc2cn3ccccc3n2)cc1", "Luciferin 4-monooxygenase (Photinus pyralis) (UniProt P08659)", 50.3),
    ("N/C(=N\\OC(=O)c1ccc2c(c1)OCO2)c1ccc(Br)cc1", "Luciferin 4-monooxygenase (Photinus pyralis) (UniProt P08659)", 60.6),
    ("O=C(NNc1cc(Cl)ccc1Cl)c1cccnc1Cl", "Luciferin 4-monooxygenase (Photinus pyralis) (UniProt P08659)", -7.9),
    ("Cc1nn(C)cc1/C=N/NC(=O)c1sc2ccccc2c1Cl", "Luciferin 4-monooxygenase (Photinus pyralis) (UniProt P08659)", 11.2),
    ("O=C1OC(/C=C/c2ccccc2)=NC/1=C/c1ccco1", "Luciferin 4-monooxygenase (Photinus pyralis) (UniProt P08659)", 53.5),
    ("COc1ccc(C(=O)OCC(=O)NC(=O)CCSc2ccccc2)cc1", "Luciferin 4-monooxygenase (Photinus pyralis) (UniProt P08659)", -0.8),
    ("COc1ccc(NC(=O)CSc2nnc(-c3ccccc3F)n2C2CC2)cc1S(N)(=O)=O", "Luciferin 4-monooxygenase (Photinus pyralis) (UniProt P08659)", 1.6),
    ("Cc1ccc2cc3cc(C(=O)N4CCCCCC4)oc3nc2c1", "Luciferin 4-monooxygenase (Photinus pyralis) (UniProt P08659)", 69.5),
    ("CCOc1ccc(NC(=O)c2cc(C)nc3ccccc23)cc1", "Luciferin 4-monooxygenase (Photinus pyralis) (UniProt P08659)", -2.9),
    ("O=C1COc2ccc(C(=O)COC(=O)C3CC(O)CN3S(=O)(=O)c3ccc(Cl)cc3)cc2N1 (stereo unspecified)", "Luciferin 4-monooxygenase (Photinus pyralis) (UniProt P08659)", 29.8),
    ("Cc1ccc(CN2CCN(Cc3cn(C)nc3-c3ccccc3)CC2CCO)o1 (stereo unspecified)", "Luciferin 4-monooxygenase (Photinus pyralis) (UniProt P08659)", -4.5),
    ("CCc1ccccc1NC(=O)CN(c1ccc(OC)cc1OC)S(=O)(=O)c1ccccc1[N+](=O)[O-]", "Luciferin 4-monooxygenase (Photinus pyralis) (UniProt P08659)", -10.9),
    ("Cn1c(=NC(=O)c2cnccn2)sc2ccccc21", "Luciferin 4-monooxygenase (Photinus pyralis) (UniProt P08659)", 75.5),
    ("C(=N\\Nc1ccc2ccccc2n1)/c1ccc2c(c1)OCO2", "Luciferin 4-monooxygenase (Photinus pyralis) (UniProt P08659)", 87.4),
    ("Nc1ccc(-c2nnc(-c3ccc(-c4ccccc4)cc3)o2)cc1", "Luciferin 4-monooxygenase (Photinus pyralis) (UniProt P08659)", 3.7),
    ("Cc1cccc(-n2ncc3c(N4CCc5ccccc54)ncnc32)c1", "Luciferin 4-monooxygenase (Photinus pyralis) (UniProt P08659)", 17.1),
    ("O=C(Nc1nnc(Cc2ccc(Cl)cc2)s1)c1cccnc1", "Luciferin 4-monooxygenase (Photinus pyralis) (UniProt P08659)", 7.5),
    ("O=C(Nc1cccnc1)c1noc2c1CCCCC2", "Luciferin 4-monooxygenase (Photinus pyralis) (UniProt P08659)", 57.5),
    ("COc1ccc(-n2ncc3c(N4CCCc5ccccc54)ncnc32)cc1", "Luciferin 4-monooxygenase (Photinus pyralis) (UniProt P08659)", 54.9),
    ("O=C(CC(=O)N/N=C\\c1cccc(Cl)c1Cl)NCc1ccccc1", "Luciferin 4-monooxygenase (Photinus pyralis) (UniProt P08659)", -7.3),
    ("CCOc1ccc(C(CC(=O)O)NC(=O)C23CC4CC(CC(C4)C2)C3)cc1OC (stereo unspecified)", "Luciferin 4-monooxygenase (Photinus pyralis) (UniProt P08659)", -3.9),
    ("O=C1CC(c2ccccc2)=NN1c1ccc([N+](=O)[O-])cc1", "Luciferin 4-monooxygenase (Photinus pyralis) (UniProt P08659)", -2.5),
    ("CC(C)(C)C1C/C(=C/c2ccco2)C(=O)/C(=C/c2ccco2)C1 (stereo unspecified)", "Luciferin 4-monooxygenase (Photinus pyralis) (UniProt P08659)", -5.4),
    ("C1=C(CCNc2ncnc3c2cnn3-c2ccccc2)CCCC1", "Luciferin 4-monooxygenase (Photinus pyralis) (UniProt P08659)", 10.5),
    ("CCOc1ccc(-c2nnc(-c3ccco3)o2)cc1", "Luciferin 4-monooxygenase (Photinus pyralis) (UniProt P08659)", 79.2),
    ("CCCOc1ccc(C(=O)NCCc2ccccc2)cc1", "Luciferin 4-monooxygenase (Photinus pyralis) (UniProt P08659)", 70.6),
    ("CC/C(O)=C1\\C(=O)CC(C)(C)CC1=NCCc1nc2ccccc2[nH]1", "Luciferin 4-monooxygenase (Photinus pyralis) (UniProt P08659)", -2.7),
    ("Cc1ccc(SCCC(=O)Nc2cc(C)on2)cc1", "Luciferin 4-monooxygenase (Photinus pyralis) (UniProt P08659)", -4.4),
    ("COc1ccc(C(=O)NCc2cn3ccccc3n2)cc1", "Luciferin 4-monooxygenase (Photinus pyralis) (UniProt P08659)", -1.1),
    ("O=C(NNc1ncnc2c1cnn2-c1ccccc1)c1ccco1", "Luciferin 4-monooxygenase (Photinus pyralis) (UniProt P08659)", 6),
    ("O=C(Nc1cccnc1)c1cccc(S(=O)(=O)N2CCCC2)c1", "Luciferin 4-monooxygenase (Photinus pyralis) (UniProt P08659)", -1.1),
    ("Cn1c(=NC(=O)CSCC(=O)N2CCOCC2)sc2ccccc21", "Luciferin 4-monooxygenase (Photinus pyralis) (UniProt P08659)", -1.3),
    ("Cc1ccc(N2C(=O)C(CC(=O)Nc3cccc(F)c3)N(CCc3ccncc3)C2=O)cc1 (stereo unspecified)", "Luciferin 4-monooxygenase (Photinus pyralis) (UniProt P08659)", -0.5),
]

* * *

- measurement target: Luciferin 4-monooxygenase (Photinus pyralis)
- test method notes: firefly luciferase enzyme inhibitors, primary screen, artefact control for luciferase-based inhibitor screens, biochemical, luminescence, ATPLite (AID 1006)
- run conditions: 10 min, at 10 µM, active compounds read high
In all, about 200,000 compounds went through this assay and about 3,000 (1.5%) were called active. This is one part of a sample in which actives are shown more often than they occur.
Reported inhibition values are given for each entry in this list.
quantity kind: inhibition (%)

# compound, unit abbreviation, result number
rows = [
    ("COc1ccc(C2=NOC(COC(=O)c3ccc4ccccc4n3)C2)cc1 (configuration not stated)", "%", 3.5),
    ("Cc1ccc(N2CCN(C3=NC(=O)/C(=C\\c4cccs4)S3)CC2)cc1", "%", -3.4),
    ("Cc1nn(Cc2ccc(Cl)cc2)c(Cl)c1/C=N/NC(=O)c1cccnc1", "%", -5.5),
    ("COc1ccc(C2=NOC3(CC(=O)N(c4ccc(C)cc4)C3=O)C2)cc1 (configuration not stated)", "%", -1.7),
    ("COC(=O)CSc1nccc(-c2cccs2)n1", "%", 3.7),
    ("c1ccc(CN2CCC(N=C3NN=C(c4ccc5c(c4)OCCO5)CS3)CC2)cc1", "%", -2.4),
    ("Cc1ccc(-c2cc(C(F)(F)F)n3ncc(C(=O)N4CCCCC4c4cccnc4)c3n2)cc1 (configuration not stated)", "%", -6.3),
    ("CCc1ccc(OCC(=O)OCC(=O)c2c(N)n(C)c(=O)n(C)c2=O)cc1", "%", -11.1),
    ("Cc1ccc(CN2C(=O)N/C(=C/c3cc(C)n(-c4ccccn4)c3C)C2=O)cc1", "%", 1.2),
    ("COc1ccc(OC)c(-n2c(=S)[nH]c3cc(C(=O)N4CCCCC4)ccc3c2=O)c1", "%", -6.8),
    ("CC(C)(C)Cc1nnc(NC(=O)c2cc(-c3ccccc3)nc3ccccc23)s1", "%", -4.3),
    ("Cc1cc(/C=C2\\SC(=Nc3ccc(N4CCOCC4)cc3)N(C)C2=O)c(C)n1-c1cccnc1", "%", -0.4),
    ("O=C(c1cc(Cl)cc(Cl)c1)N1CCC(=O)N(C(COCc2ccccc2)Cc2ccccc2)CC1 (configuration not stated)", "%", -9.5),
    ("Cn1cc(CN2CCCCC2c2ccccn2)c(-c2ccc3c(c2)OCCO3)n1 (configuration not stated)", "%", -5),
    ("COc1ccccc1CN(C)C(=O)C1(c2ccc(Cl)cc2)CC1", "%", -4.2),
    ("N/C(=N\\OC(=O)c1ccc([N+](=O)[O-])cc1)c1ccccn1", "%", 91.5),
    ("COc1cccc(OC)c1C(=O)NC(=S)NCc1ccco1", "%", -2.1),
    ("Cc1cc(/C=C(/C#N)C(=O)Nc2ccc(Cl)cc2)c(C)n1-c1cccnc1", "%", -3.9),
    ("CC(C)n1c(-c2ccncc2)n[nH]c1=S", "%", -5.7),
    ("O=C(OCc1ccc([N+](=O)[O-])cc1)c1ccccn1", "%", -6),
    ("Cc1cc(/C=C2/NC(=O)NC2=O)c(C)n1-c1cccnc1", "%", 56.5),
    ("Cc1cccc(C2=N/C(=C/c3cccs3)C(=O)O2)c1", "%", 88.5),
]
